All values here come from patent US5294627A.

system: Squalene synthase (Rattus norvegicus)
Sequence (Q02769 whole entry): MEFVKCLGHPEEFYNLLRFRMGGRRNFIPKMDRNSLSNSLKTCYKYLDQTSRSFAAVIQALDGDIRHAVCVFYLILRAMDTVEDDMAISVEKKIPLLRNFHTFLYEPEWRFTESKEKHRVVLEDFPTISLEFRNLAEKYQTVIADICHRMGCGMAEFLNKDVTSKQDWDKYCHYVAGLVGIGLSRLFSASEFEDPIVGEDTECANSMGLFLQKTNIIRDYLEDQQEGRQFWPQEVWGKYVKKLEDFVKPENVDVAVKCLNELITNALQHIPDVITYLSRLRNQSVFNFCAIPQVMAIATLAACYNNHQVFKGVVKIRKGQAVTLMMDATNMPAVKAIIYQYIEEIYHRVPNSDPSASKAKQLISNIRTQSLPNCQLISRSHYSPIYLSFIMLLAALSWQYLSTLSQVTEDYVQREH
testReadout: IC50

Q: Determine its reported IC50: CC(=O)OC(CCCC12OC(C(=O)O)C(O)(C(=O)O)C(C(=O)O)(O1)[C@H](OC(=O)CC/C=C/C(C)CCCc1ccccc1)[C@H]2O)C(C)Cc1cccs1 (stereo partly shown)
A: < 131 nM
